assay: NCI Yeast Anticancer Drug Screen. Data for the mlh1 rad18 strain (AID 175); settings: S. cerevisiae mlh1 rad18 strain growth inhibition; at 50.0 µM; active compounds read high
This is part of a sample that, as a whole, favours compounds with a hit. Of some 79,000 tested, about 15% had one in any assay.
For each entry below, report its growth inhibition value.
Numbers only, in %.

Consider the worked cases shown below.
>  <compound>
S=c1nc[nH]c2c1ncn2Cc1ccccc1

>  <unit-annotation>
%

>  <growth inhibition>
2.35

$$$$
>  <compound>
CC[O-].CC[O-].COc1ccc(C(=O)[CH-]C(C)=O)cc1OC.COc1ccc(C(=O)[CH-]C(C)=O)cc1OC.[Ti+4]

>  <unit-annotation>
%

>  <growth inhibition>
-10.3

$$$$

Please give growth inhibition, item by item, for the list that follows.
1. CCCCC(CC)OC(=O)Cc1ccccc1 (stereo unspecified)
2. ClC1CC/C=C\CC/C=C/CCC1Cl (stereo unspecified)
3. CCCC(=O)Oc1c(Cl)cc(Cl)cc1-c1ccccc1
4. CCCCOP(=O)(OCCCC)C(c1ccccc1)(c1ccccc1)c1ccccc1

Result:
1: 16.5; 2: 41.3; 3: 1.45; 4: 59.6
